measured_target: HLA-A*69:01
test_summary: IEDB peptide-MHC binding, purified MHC/direct/fluorescence; filed as Kd, often an IC50 or EC50 that approximates it; bounds were set here for any values at or beyond the usual limits of such assays
measurement_setup: source organism: Giardia lamblia ATCC 50803
assay_metric: Kd

LPVFATIGL ... 0.0117 µM
SVKERGPAY ... ≥ 20 µM

sequence `RPRGHREFC` , Kd observed: ≥ 20 µM

----------
measured_target: HLA-A*01:01
test_summary: IEDB peptide-MHC binding, purified MHC/direct/fluorescence; filed as Kd, often an IC50 or EC50 that approximates it; bounds were set here for any values at or beyond the usual limits of such assays
measurement_setup: source organism: Influenza A virus (A/New York/140/1999(H3N2))
pKd: −log10 of the molar value.
assay_metric: pKd

sequence `AVDADDSHF` , pKd observed: ≤ 4.70
